Catalogue of log10 IC50 readings, one per entry.
Molecular target: UniProt P43490
Assay: NAMPT biochemical inhibition assay (NMN quantified by mass spectrometry)
Conditions: NAMPT biochemical inhibition; read-out: Biochem IC50
Please interpret these as log10 of IC50 where IC50 is in nM.

See these solved cases before continuing.
>>> numeric_value("O=C(NCc1cccnc1)Nc1ccc(S(=O)(=O)NC2(c3ccccc3)CCCC2)cc1")
1.46
>>> numeric_value("Cn1ncc2ccc(S(=O)(=O)c3ccc(NC(=O)NCc4cccnc4)cc3)cc21")
0.40
>>> numeric_value("Cc1cc(S(=O)(=O)c2ccc(NC(=O)NCc3cccnc3)cc2)ccc1F")
0.57

Query block: Which log10 IC50 reading was recorded for the molecule O=C(NCc1cccnc1)Nc1ccc(S(=O)(=O)N2CCCC(C(F)(F)F)C2)cc1 (centres unmarked) ?
Result block: 0.48

Query block: Which log10 IC50 reading was recorded for the molecule CC1CCCC(C)N1S(=O)(=O)c1ccc(NC(=O)NCc2cccnc2)cc1 (centres unmarked) ?
Result block: 1.04

* * *

Target: UniProt P43490
Experiment: NAMPT biochemical inhibition assay (NMN quantified by mass spectrometry)
Settings: NAMPT biochemical inhibition; read-out: Biochem IC50
reported metric: IC50

See these solved cases before continuing.
>>> result("COCCOc1ccc(CNC(=O)Nc2ccc(S(=O)(=O)c3ccccc3)cc2)cn1")
"2120 nM"
>>> result("O=C(NCCc1cccnc1)c1ccc(S(=O)(=O)Nc2cccc(OC(F)(F)F)c2)cc1")
"20500 nM"
>>> result("Cc1ccc(NS(=O)(=O)c2ccc(NC(=O)NCc3cccnc3)cc2)cc1C(F)(F)F")
"2 nM"

Query block: Which IC50 reading was recorded for the molecule C[C@H](O)COc1ccccc1NS(=O)(=O)c1ccc(NC(=O)NCc2cccnc2)cc1 ?
Result block: 12 nM

Query block: Which IC50 reading was recorded for the molecule CC(C)NC(=O)c1cccc(S(=O)(=O)c2ccc(NC(=O)NCc3cccnc3)cc2)c1 ?
Result block: 10 nM

Query block: Which IC50 reading was recorded for the molecule O=C(NCc1cccnc1)Nc1ccc(S(=O)(=O)Nc2ccc(N3CCOCC3)cc2)cc1 ?
Result block: 5 nM

Query block: Which IC50 reading was recorded for the molecule CC(C)(NS(=O)(=O)c1ccc(NC(=O)NCc2cccnc2)cc1)c1ccccc1 ?
Result block: 5 nM

* * *

Molecular target: NAMPT (Homo sapiens (Human))
Assay: NAMPT biochemical inhibition assay (NMN quantified by mass spectrometry)
Conditions: NAMPT biochemical inhibition; read-out: Biochem IC50
Catalogue of IC50 readings, one per entry.
Give the quantity in nM, number only.

>>> numeric_value("CCN(CC)C(=O)CN1CCN(S(=O)(=O)c2ccc(NC(=O)NCc3cccnc3)cc2)CC1")
5
>>> numeric_value("CC(C)(C)c1ccc(NS(=O)(=O)c2ccc(NC(=O)NCc3cccnc3)cc2)c(Cl)c1")
1.4

Query block: Which IC50 reading was recorded for the compound COc1ccc(C(F)(F)F)cc1NS(=O)(=O)c1ccc(NC(=O)NCc2cccnc2)cc1 ?
Result block: 0.1

Query block: Which IC50 reading was recorded for the compound O=C(NCc1cccnc1)Nc1ccc(S(=O)(=O)Nc2ccc(Cl)cc2OC(F)(F)F)cc1 ?
Result block: 6

Query block: Which IC50 reading was recorded for the compound CCS(=O)(=O)c1cccc(S(=O)(=O)c2ccc(NC(=O)NCc3cccnc3)cc2)c1 ?
Result block: 7.6

Query block: Which IC50 reading was recorded for the compound CC(=O)c1ccc(S(=O)(=O)c2ccc(NC(=O)NCc3cccnc3)cc2)cc1 ?
Result block: 2

Query block: Which IC50 reading was recorded for the compound O=C(NCc1cccnc1)Nc1ccc(S(=O)(=O)c2ccc(N3CCOCC3)nc2)cc1 ?
Result block: 3.6

Query block: Which IC50 reading was recorded for the compound CNC(=O)c1ccc(S(=O)(=O)c2ccc(NC(=O)NCc3cccnc3)cc2)cn1 ?
Result block: 3.8

Query block: Which IC50 reading was recorded for the compound Cc1ccc(F)cc1S(=O)(=O)c1ccc(NC(=O)NCc2cccnc2)cc1 ?
Result block: 4

* * *

Catalogue of IC50 readings, one per entry.
Target: NAMPT (Homo sapiens (Human), UniProt P43490)
Sequence (P43490 whole entry): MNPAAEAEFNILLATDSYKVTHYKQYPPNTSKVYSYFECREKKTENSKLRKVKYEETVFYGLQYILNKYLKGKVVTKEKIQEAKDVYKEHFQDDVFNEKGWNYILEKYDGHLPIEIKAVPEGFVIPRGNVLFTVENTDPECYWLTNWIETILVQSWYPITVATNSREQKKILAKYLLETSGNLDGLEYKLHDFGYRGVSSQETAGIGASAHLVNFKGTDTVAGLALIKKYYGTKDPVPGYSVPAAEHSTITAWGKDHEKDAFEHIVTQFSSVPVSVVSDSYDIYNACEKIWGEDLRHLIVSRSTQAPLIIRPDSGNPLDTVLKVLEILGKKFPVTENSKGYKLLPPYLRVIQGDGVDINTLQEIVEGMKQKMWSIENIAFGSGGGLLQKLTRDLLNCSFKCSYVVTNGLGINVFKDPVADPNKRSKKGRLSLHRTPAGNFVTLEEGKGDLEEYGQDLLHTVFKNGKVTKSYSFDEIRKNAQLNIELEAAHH
Test: NAMPT biochemical inhibition assay (NMN quantified by mass spectrometry)
Settings: NAMPT biochemical inhibition; read-out: Biochem IC50
Give the quantity in nM, number only.

See these solved cases before continuing.
>>> numeric_value("COc1ccc(C)cc1NS(=O)(=O)c1ccc(NC(=O)NCc2cccnc2)cc1")
2
>>> numeric_value("O=C(NCc1cccnc1)Nc1ccc(S(=O)(=O)Nc2ccccc2F)cc1")
8
>>> numeric_value("O=C(NCc1cccnc1)Nc1ccc(S(=O)(=O)c2ccc(C(F)(F)F)c(F)c2)cc1")
4.1
>>> numeric_value("COc1ccc(Cl)cc1NS(=O)(=O)c1ccc(C(=O)NCCc2cccnc2)cc1")
4720
>>> numeric_value("O=C(NCc1ccc(F)c(F)c1)Nc1ccc(S(=O)(=O)N2CCCCC2)cc1")
92
>>> numeric_value("CCCS(=O)(=O)Nc1cccc(S(=O)(=O)c2ccc(NC(=O)NCc3cccnc3)cc2)c1")
1.6
>>> numeric_value("O=C(NCc1cccnc1)Nc1ccc(S(=O)(=O)c2ccccc2)nc1")
15
>>> numeric_value("CCCOc1ccc(S(=O)(=O)c2ccc(NC(=O)NCc3cccnc3)cc2)cc1Cl")
4.6
>>> numeric_value("O=C(NCc1cccnc1)Nc1ccc(S(=O)(=O)c2cccc(C(=O)NCCO)c2)cc1")
7.8
>>> numeric_value("COc1cc(Cl)c(C)cc1NS(=O)(=O)c1ccc(NC(=O)NCc2cccnc2)cc1")
1

Query block: Query IC50 on NAMPT (Homo sapiens (Human), UniProt P43490) for O=C(NCc1cccnc1)Nc1ccc(S(=O)(=O)c2cccc(-n3cccn3)c2)cc1
Result block: 2.2

Query block: Query IC50 on NAMPT (Homo sapiens (Human), UniProt P43490) for O=C(Nc1ccc(S(=O)(=O)c2ccccc2)cc1)Nc1ccc2ncccc2c1
Result block: 90

Query block: Query IC50 on NAMPT (Homo sapiens (Human), UniProt P43490) for O=C(NCc1cccnc1)Nc1ccc(S(=O)(=O)c2ccc(F)c(OCC(F)(F)F)c2)cc1
Result block: 2.1

Query block: Query IC50 on NAMPT (Homo sapiens (Human), UniProt P43490) for O=C(NCc1cccnc1)Nc1ccc(S(=O)(=O)c2cccc3[nH]ccc23)cc1
Result block: 1.6

* * *

Molecular target: NAMPT (Homo sapiens (Human), UniProt P43490)
Assay: NAMPT biochemical inhibition assay (NMN quantified by mass spectrometry)
Conditions: NAMPT biochemical inhibition; read-out: Biochem IC50
reported metric: log10(IC50) (log10 of the value in nM)
Please interpret these as log10 of IC50 where IC50 is in nM.

See these solved cases before continuing.
>>> numeric_value("CNC(=O)c1ccccc1NS(=O)(=O)c1ccc(NC(=O)NCc2cccnc2)cc1")
0.00
>>> numeric_value("CCN(C1CCCCC1)S(=O)(=O)c1ccc(NC(=O)NCc2cccnc2)cc1")
0.70
>>> numeric_value("O=C(NCc1cccnc1)Nc1ccc(S(=O)(=O)n2cccc2)cc1")
1.28

Query block: Which log10(IC50) reading was recorded for the molecule CCOc1ccccc1NS(=O)(=O)c1ccc(NC(=O)NCc2cccnc2)cc1 ?
Result block: 0.48

Query block: Which log10(IC50) reading was recorded for the molecule CC(NC(=O)Nc1ccc(S(=O)(=O)N2CCCCC2)cc1)c1cccnc1 (stereo not shown) ?
Result block: 4.34

Query block: Which log10(IC50) reading was recorded for the molecule N#Cc1cccc(S(=O)(=O)c2ccc(NC(=O)NCc3cccnc3)cc2)c1 ?
Result block: 0.90

* * *

Target: UniProtKB P43490
Assay: NAMPT biochemical inhibition assay (NMN quantified by mass spectrometry)
Conditions: NAMPT biochemical inhibition; read-out: Biochem IC50
reported metric: pIC50
# pIC50: negative log10 of molar concentration; output just the value

See these solved cases before continuing.
>>> numeric_value("O=C(NCc1ccc[n+]([O-])c1)Nc1ccc([S+]([O-])c2ccc(Cl)cc2)cc1 (stereo not drawn)")
6.35
>>> numeric_value("Cc1ncccc1S(=O)(=O)c1ccc(NC(=O)NCc2cccnc2)cc1")
8.14
>>> numeric_value("O=C(NCc1cccnc1)Nc1ccc(S(=O)(=O)c2cccc(Cl)c2Cl)cc1")
9.00

Query block: Which pIC50 reading was recorded for the compound CC(C)Oc1ccc(S(=O)(=O)c2ccc(NC(=O)NCc3cccnc3)cc2)cc1 ?
Result block: 8.77

Query block: Which pIC50 reading was recorded for the compound CCNS(=O)(=O)c1cccc(S(=O)(=O)c2ccc(NC(=O)NCc3cccnc3)cc2)c1 ?
Result block: 8.14

Query block: Which pIC50 reading was recorded for the compound Cc1ccc(NS(=O)(=O)c2ccc(NC(=O)NCc3cccnc3)cc2)cc1Cl ?
Result block: 8.85

Query block: Which pIC50 reading was recorded for the compound COc1ccc(S(=O)(=O)c2ccc(NC(=O)NCc3cccnc3)cc2)c(OC)c1 ?
Result block: 8.30

Query block: Which pIC50 reading was recorded for the compound Cc1ccc(S(=O)(=O)c2ccc(NC(=O)NCc3cccnc3)cc2)cc1F ?
Result block: 9.00

Query block: Which pIC50 reading was recorded for the compound O=C(NCc1cccnc1)Nc1ccc(S(=O)(=O)Nc2cccc(Br)c2)cc1 ?
Result block: 8.52

Query block: Which pIC50 reading was recorded for the compound O=C(NCc1cccnc1)Nc1ccc(S(=O)(=O)N2CC[C@H]3CCCC[C@@H]3C2)cc1 (relative stereo) ?
Result block: 8.70

These entries and their values trace back to patent US11279687B2.
